system: 874868-142-R-J2-PDC complex spheroids, growth % test/control; test: Anticancer human tumor 874868-142-R-J2-PDC patient-derived head and neck squamous carcinoma cell line growth inhibition [CLK]; conditions: second compound 10 µM; first compound 10 µM; active = viability on the fitted dose curve at most 10% of control; inactive = the rest;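 note: spheroids exposed to the compounds for 7 days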
Pick from active, inactive when you respond.

compound="C=C(F)C(=O)N1CCN(c2nc(OCC3CCCN3C)nc3c2CCN(c2cccc4cccc(Cl)c24)C3)CC1CC#N (stereo unspecified) + CNC(=O)c1ccc(Nc2nc(OC3CCCC3)c3c(-c4ccc5nc(C)oc5c4)c[nH]c3n2)c(OC)c1" group=active
compound="Nc1ccn(C2OC(CO)C(O)C2(F)F)c(=O)n1 (stereo unspecified) + CN1CCN(c2cc(C(=O)Nc3cc4cc(-c5cnn(C)c5)ccc4cn3)ccn2)CC1" group=active
compound="CC(=O)O[C@H]1C(=O)[C@@]2(C)[C@H]([C@H](OC(=O)c3ccccc3)[C@]3(O)C[C@H](OC(=O)[C@H](O)[C@@H](NC(=O)c4ccccc4)c4ccccc4)C(C)=C1C3(C)C)[C@]1(OC(C)=O)CO[C@@H]1C[C@@H]2O + CN1CCN(c2cc(C(=O)Nc3cc4cc(-c5cnn(C)c5)ccc4cn3)ccn2)CC1" group=active
compound="O=C(c1cc(Cc2n[nH]c(=O)c3ccccc23)ccc1F)N1CCN(C(=O)C2CC2)CC1 + CN1CCN(c2cc(C(=O)Nc3cc4cc(-c5cnn(C)c5)ccc4cn3)ccn2)CC1" group=active
compound="C#Cc1c(F)ccc2cc(O)cc(-c3ncc4c(N5CC6CCC(C5)N6)nc(OCC56CCCN5CC(F)C6)nc4c3F)c12 (stereo unspecified) + CNC(=O)c1ccc(Nc2nc(OC3CCCC3)c3c(-c4ccc5nc(C)oc5c4)c[nH]c3n2)c(OC)c1" group=inactive
compound="COC1C=CCC(C)C(C)S(=O)(=O)NC(=O)c2ccc3c(c2)N(CC2CCC21)CC1(CCCc2cc(Cl)ccc21)CO3 (stereo unspecified) + CNC(=O)c1ccc(Nc2nc(OC3CCCC3)c3c(-c4ccc5nc(C)oc5c4)c[nH]c3n2)c(OC)c1" group=inactive
compound="COC1C=CCC(C)C(C)S(=O)(=O)NC(=O)c2ccc3c(c2)N(CC2CCC21)CC1(CCCc2cc(Cl)ccc21)CO3 (stereo unspecified) + CN1CCN(c2cc(C(=O)Nc3cc4cc(-c5cnn(C)c5)ccc4cn3)ccn2)CC1" group=active
compound="C=CC(=O)N1CCN(c2nc(=O)n(-c3c(C)ccnc3C(C)C)c3nc(-c4c(O)cccc4F)c(F)cc23)C(C)C1 (stereo unspecified) + CN1CCN(c2cc(C(=O)Nc3cc4cc(-c5cnn(C)c5)ccc4cn3)ccn2)CC1" group=active
compound="C=CC(=O)N1CCN(c2nc(=O)n(-c3c(C)ccnc3C(C)C)c3nc(-c4c(O)cccc4F)c(F)cc23)C(C)C1 (stereo unspecified) + CNC(=O)c1ccc(Nc2nc(OC3CCCC3)c3c(-c4ccc5nc(C)oc5c4)c[nH]c3n2)c(OC)c1" group=inactive
compound="CC1COCCN1c1cc(C2(S(C)(=N)=O)CC2)nc(-c2ccnc3[nH]ccc23)n1 (stereo unspecified) + CN1CCN(c2cc(C(=O)Nc3cc4cc(-c5cnn(C)c5)ccc4cn3)ccn2)CC1" group=active

Ask | Query: recorded result category for Nc1ccccc1NC(=O)c1ccc(CNC(=O)OCc2cccnc2)cc1 + CN1CCN(c2cc(C(=O)Nc3cc4cc(-c5cnn(C)c5)ccc4cn3)ccn2)CC1 in this test
Reply | active
